// reported melting point per item

Use the examples below as a reference point.
Looking for the measured melting point of `CN(C)c1ccc(C(=O)NC2CCN(C(c3ccccc3)c3ccccc3)CC2)c([N+](=O)[O-])c1` , can you help?
183 °C

Next entry: `CN(C)c1ccc(CN[C@@H](C(=O)O)[C@H](O)[C@H](Cc2ccccc2)NC(=O)OC(C)(C)C)cc1`
202 to 204 °C

Next entry: CCN1C[C@@H](O)[C@H](N(C(=O)c2ccc(Cl)cc2)C2CCCCC2)C1 (relative stereo)
111 to 116 °C

Next entry: Cc1c(C#N)c(NC(=O)c2ccccc2)n(C(C)c2ccccc2)c1C (stereo unspecified)
218 to 221 °C

Next entry: Oc1c(CN2CCOCC2)ncc2c1COC2c1ccccc1 (stereo unspecified)
172 °C

Continuing:
Looking for the measured melting point of `Cc1ccc(S(=O)(=O)NC(=S)NC23CC4CC(CC(C4)C2)C3)cc1` , can you help?
170 to 173 °C

Next entry: Cc1ccc(C(=O)NC(=O)N2CC2C#N)cc1 (stereo unspecified)
177 to 180 °C

Next entry: `Cc1cc(C(=O)NC2CC(C)(C)NC(C)(C)C2)c(C)o1`
116 to 118 °C

Next entry: `COC(=O)c1ccccc1S(=O)(=O)NC(=O)Nc1n[nH]c(SC)n1`
147 to 153 °C

Next entry: `O=c1[nH]c(=Cc2ccc(OCc3ccccc3)cn2)c(=O)[nH]c1=Cc1ccc([N+](=O)[O-])cc1`
> 300 °C

Next entry: `O=C(NCP(=O)(O)O)c1ccccc1`
171 to 173 °C

Next entry: `Cc1c(-c2cccnn2)ssc1=S`
193 °C

Next entry: `O=[N+]([O-])c1ccc(-c2cccs2)c(-c2cccs2)c1`
97 to 101 °C

Next entry: `CN1CCN(C2=Nc3cc(Cl)ccc3N3CCc4cccc2c43)CC1`
154 to 156 °C

Next entry: `CCc1cccc(Nc2nc(OCC3CCCCC3)c3[nH]cnc3n2)c1`
180 to 183 °C

Next entry: NC(=O)N1CCC(Br)C1=O (stereo unspecified)
128 to 129 °C

Next entry: CCC(=O)NCC1CC1c1c(Br)ccc2nn(C)cc12 (stereo unspecified)
119 to 121 °C

Next entry: `COC(=O)c1ccc(C(=O)C(=O)c2ccc3c(c2)C(C)(C)CCC3(C)C)cc1`
93 to 96 °C

----------
// reported melting point per item

Use the examples below as a reference point.
Looking for the measured melting point of `CCCCC(=N)NC(=O)Nc1cccc(C(F)(F)F)c1` , can you help?
167 to 169 °C

Next entry: CC(C)c1cc2c(cc1C(CC(=O)O)c1ccccc1)OCO2 (stereo not given)
114 °C

Next entry: `CN(C)C(=O)C1(NS(=O)(=O)c2ccc3c(Cl)cnc(NC(=N)N)c3c2)CCCC1`
264 to 268 °C

Continuing:
Looking for the measured melting point of `CC(C)N(C(=O)c1cccc2c1CCc1cc(F)ccc1S2)C(C)C` , can you help?
149 to 150 °C

Next entry: `C=CCOc1ccc(C(=O)C=Cc2cc(OC)cc(OC)c2C)cc1`
123 to 124 °C

Next entry: CC12CCC(C1)C1(C)Oc3ccc(Br)cc3C21C (stereo not given)
120 °C

Next entry: `CC(=O)N[C@@H](C)COc1cnc(-c2nc3ccc(OCC4CC4)cc3o2)c(F)c1`
158 to 159 °C

Next entry: `Clc1ccc2c3c(cnc2c1)OC1(C=N3)CCCCC1`
216 to 218 °C

Next entry: CN(C)C(=O)C1Cc2cc(Cl)ccc2NC1=O (stereo not given)
302 to 305 °C

Next entry: `CC(=O)N1CCC(C(=O)c2ccc(N3CCCCC3)cc2)CC1`
122 to 125 °C

----------
// reported melting point per item

Use the examples below as a reference point.
Looking for the measured melting point of `O=C1N(c2ccccc2)N=C(Nc2ccccc2)C1(Br)Br` , can you help?
190 °C

Next entry: `CC(C)c1cccc(C(C)C)c1NC(=S)CCC(=O)c1ccccc1`
168 to 169 °C

Next entry: `FC(F)(F)c1ccc2c(c1)N=Cc1ccccc1O2`
86 to 88 °C

Next entry: O=S(=O)(c1ccc(Cl)cc1)C(c1ccc(C2OCCO2)cn1)c1cc(F)ccc1F (stereo not given)
167 to 168 °C

Next entry: `CCCCCCCCCCCCCCOc1cc(OCCCCCCc2cccc(O)c2O)cc(C(=O)OC)c1`
77 to 79 °C

Next entry: COc1ccc(C(=O)C(Br)CC2CCCCC2)c(OC)c1 (stereo not given)
83 to 89 °C

Next entry: Nc1ccn(CC(O)CO)c(=O)n1 (stereo not given)
169 to 171 °C

Next entry: `CC(=O)N(C)c1ccc2c(c1)cc(C(=O)c1ccc(C)cc1)n2C`
193 to 195 °C

Continuing:
Looking for the measured melting point of `COc1cccc(OC)c1C(=O)Nc1oncc1-c1ccc(C(F)(F)F)cc1` , can you help?
199 to 201 °C

Next entry: `Cn1cc(Br)cc(Nc2ccc(N3CCN(C(=O)OC(C)(C)C)CC3=O)cn2)c1=O`
130 to 132 °C

----------
// reported melting point per item

Use the examples below as a reference point.
Looking for the measured melting point of `Cn1cc(-c2ccccc2)c(=O)c(-c2ccccc2C(F)(F)F)c1` , can you help?
168 to 171 °C

Next entry: `CN1CCN(c2ccc(Nc3ncc4c(Br)cc(-c5ccc(S(C)(=O)=O)cc5)n4n3)cc2)CC1`
265 to 266 °C

Next entry: COc1ccc2c(c1)CN(C)C(=O)C2c1cc(Cl)cc(Cl)c1 (stereo not given)
163 to 165 °C

Next entry: `Cc1cc2c(s1)c(=O)c(C(N)=O)cn2C`
328 to 330 °C

--- query ---
Looking for the measured melting point of `CON=C1CCCc2cc(C(=O)OC)c(C)nc21` , can you help?
124 to 125 °C

----------
// reported melting point per item

Looking for the measured melting point of `O=C(O)c1nc(C(Cl)(Cl)Cl)n(-c2cccc(C(F)(F)F)c2)n1` , can you help?
126 °C

Next entry: `NS(=O)(=O)c1cccc(-c2ccco2)c1`
197 to 198 °C

Next entry: Cn1nnnc1SCC1(C)SC2C(NC(=O)Cn3cnnn3)C(=O)N2C1C(=O)O (configuration not stated)
152 to 154 °C

Next entry: O=C1N(CC2CCCO2)c2c(F)cccc2C12COc1cc3c(cc12)CCO3 (configuration not stated)
169 to 170 °C

Next entry: `COc1cc(OC)c2ccccc2c1OC(C)=O`
116 to 117 °C

Next entry: `CCOC(=O)C(=CNc1ccc(OCC)nc1)C(=O)OCC`
68 to 71 °C

Next entry: CC(C)(C)NCC(O)c1cc(Br)c(N)c(C(N)=O)c1 (configuration not stated)
135 to 145 °C

Next entry: `CCC(CC)COc1cnc(N)nc1N`
173 to 174 °C

Continuing:
Looking for the measured melting point of `C[Si](C)(C)C#Cc1cc2ccc(-n3nc4ccc5ccccc5c4n3)cc2oc1=O` , can you help?
250 to 252 °C

Next entry: C=CC[C@H](C(N)=O)[C@@H](CC(C)C)C(=O)NC1N=C(c2cccc(OC)c2)c2ccccc2N(C)C1=O (some centres not stated)
225 to 230 °C

Next entry: `CS(=O)(=O)c1ccccc1CNC(=O)[C@@H]1CCCN(c2cccc3c2C(=O)N(Cc2ccncc2)C3=O)C1`
101 to 102 °C

Next entry: `COCc1ccc(Oc2cncc3sc(C(N)=O)cc23)cc1`
168 °C

Next entry: `CCSc1ccc(NC=O)cc1S(N)(=O)=O`
127 °C

Next entry: O=[N+]([O-])c1nccn1CC(O)CN1C2CCCCCC21 (configuration not stated)
91 to 91.5 °C

Next entry: C1=C(c2c[nH]c3ccccc23)CCN(CC2COc3ccc4c(c3O2)CCO4)C1 (configuration not stated)
207 to 209 °C

Next entry: CCC12CCC3C4CCC(=O)C=C4CCC3C1CCC2OC(O)C(Cl)(Cl)Cl (configuration not stated)
175 to 176 °C

Next entry: `Cc1ccccc1Nc1nc(N)nc2ccccc12`
273 to 275 °C

Next entry: CC(c1ccc(-c2ccccc2)o1)N(O)C(N)=O (configuration not stated)
133 to 136 °C

Next entry: `CC1(C)C=C(CS(=O)(=O)c2ccccc2)C(C)(C)CC1`
48 to 50 °C

Next entry: `NC(=O)c1ccc2[nH]nnc2c1`
178 to 184 °C

Next entry: CC(C)C(=O)CC1NC(=O)c2ccsc2-n2cccc21 (configuration not stated)
160 °C

Next entry: CC(ON=C(C(=O)O)c1ccc(O)c(Cl)c1)C(=O)OC(C)(C)C (configuration not stated)
148 to 151 °C

Next entry: `O=C1C2CCCC(C(=O)N2Cc2ccccc2)N1Cc1ccccc1`
201 to 202 °C

Next entry: `CCc1c(C#N)c(-c2ccc(C#N)cc2)c(C)n1Cc1cnc(Cl)c(COC(=O)CCC(=O)O)c1`
187 to 188 °C

Next entry: `CC(C)Sc1ccc2c(c1)NC(=O)C2`
99 to 102 °C

Next entry: `Cc1[nH]cnc1CSCCNc1[nH]cc(CCc2ccccc2)c1[N+](=O)[O-]`
186 to 187 °C

Next entry: CC(C)(C)OC(=O)c1ccc(OCCNC(=O)C2Cc3ccccc3N2S(=O)(=O)c2ccc(-c3ccc(F)cc3Cl)cc2)cc1 (configuration not stated)
78 °C

Next entry: O=C1NC(=O)C2(N1)C(=O)N(Cc1cc(Cl)c(Br)c(Cl)c1)c1ccccc12 (configuration not stated)
290 to 292 °C

Next entry: `COc1cccc2c1nc(C(F)F)n2-c1nc(N2CCOCC2)nc(N2CCC(NC(=O)CCl)CC2)n1`
252 to 254 °C

Next entry: `CCc1nc2cc(/C=C/C(=O)NO)ccc2c(=O)n1CCc1ccccc1`
209 to 211 °C

Next entry: COC1=CC(=O)N([C@@H]2c3cc(C#N)ccc3OC(C)(C)[C@H]2O)C1 (relative stereo)
225 °C
